targetDesc: hAM2 receptor (CALCRL:RAMP3) (Homo sapiens, UniProt O60896+Q16602)
Construct: expressed in transfected cells; host or cells: GeneBLAzer CALCRL:RAMP3-CRE-bla Freestyle 293F
Sequence (Q16602 23-461): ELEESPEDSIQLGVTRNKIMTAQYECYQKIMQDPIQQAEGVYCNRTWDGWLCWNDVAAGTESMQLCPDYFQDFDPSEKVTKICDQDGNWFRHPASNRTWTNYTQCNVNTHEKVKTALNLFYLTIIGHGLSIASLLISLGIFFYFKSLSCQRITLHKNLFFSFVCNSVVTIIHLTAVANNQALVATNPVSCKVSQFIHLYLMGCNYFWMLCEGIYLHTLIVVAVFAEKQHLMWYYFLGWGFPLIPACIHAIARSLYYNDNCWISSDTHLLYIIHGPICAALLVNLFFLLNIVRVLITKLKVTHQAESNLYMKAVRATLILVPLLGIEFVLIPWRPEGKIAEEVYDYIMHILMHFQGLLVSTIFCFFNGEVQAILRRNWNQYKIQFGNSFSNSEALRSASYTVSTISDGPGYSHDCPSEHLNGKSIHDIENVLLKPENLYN
Sequence (O60896 24-148): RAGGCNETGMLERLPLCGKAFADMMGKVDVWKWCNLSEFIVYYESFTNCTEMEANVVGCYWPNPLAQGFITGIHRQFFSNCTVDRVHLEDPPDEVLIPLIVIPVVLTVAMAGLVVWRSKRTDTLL
experimentalDetails: AM2 receptor antagonist activity measured by cAMP assay (HTRF)
Format: cell-based
conditionsUsed: selectivity ratio for hCGRP over hAM2, calculated from the IC50 values
Numbered stars: 1 amine (or outer) side, 2 acyl side, 3 side chain; on linkers, the order of the positions; unused ones are H or OH. Bridge positions count the residues as written; N and C are the ends. Square brackets hold non-standard residues; d marks the D form. Peptide text beside a SMILES is read from it. * marks the point of attachment. Phe(3-CH2NH2) = O=C([C@H](Cc1cccc(CN[*:3])c1)N[*:1])[*:2]; Phe(4-NHCONH2) = NC(=O)Nc1ccc(C[C@H](N)C(=O)O)cc1; Phe(2-CONH2) = NC(=O)c1ccccc1C[C@H](N)C(=O)O; X14 = CCN(CC)CCC[C@H](N[*:1])C(=O)[*:2]; Picolinoyl(5-F) = O=C(c1ccc(F)cn1)*; Orn(iPr) = CC(C)NCCC[C@H](N)C(=O)O; Oxazole2carbonyl = O=C(c1ncco1)*; 3Pal = N[C@@H](Cc1cccnc1)C(=O)O; Picolinoyl = O=C(c1ccccn1)*; ΔPro = O=C(O)[C@@H]1C=CCN1; Orn = NCCC[C@H](N)C(=O)O; X8 = CC(C)NCCOCCOCC(=O)*; X7 = O=C(c1cc(F)ccn1)*; X6 = O=C(c1ccncn1)*
Measured selectivity ratio CGRP/AM2 values are reported for all entries that follow.
Please respond with just the number, no unit label.

INSERT INTO measurements (molecule, assayreadout, assayvalue) VALUES
  ('CCN(CC)CCC[C@@H]1NC(=O)[C@@H](NC(=O)[C@H](Cc2ccc(O)cc2)NC(=O)[C@H](NC(=O)c2ccccn2)C(C)C)CSSC[C@@H](C(=O)N[C@@H](Cc2cccnc2)C(N)=O)NC(=O)[C@H](Cc2ccccc2)NC(=O)[C@@H]2CCCN2C(=O)CNC(=O)[C@H](C(C)C)NC(=O)[C@H](CC(=O)O)NC1=O [Compound 24] (Picolinoyl-[dV]YC[X14]DVGPFC[3Pal]-NH2; disulfide 3-10)', 'selectivity ratio CGRP/AM2', 1213);

Prompt: Write down the reported selectivity ratio CGRP/AM2 (system: hAM2 receptor (CALCRL:RAMP3) (Homo sapiens, UniProt O60896+Q16602)) of CC(C)[C@@H]1NC(=O)[C@H](CC(=O)O)NC(=O)[C@H](CCCNC(=N)N)NC(=O)[C@@H](NC(=O)[C@H](Cc2ccc(O)cc2)NC(=O)[C@H](NC(=O)c2ccncn2)C(C)C)CSSC[C@@H](C(=O)N[C@@H](Cc2cccnc2)C(N)=O)NC(=O)[C@H](Cc2ccccc2)NC(=O)[C@@H]2CCCN2C(=O)CNC1=O [Compound 16] (X6-[dV]YCRDVGPFC[3Pal]-NH2; disulfide 3-10)
Completion: 93

Prompt: Write down the reported selectivity ratio CGRP/AM2 (system: hAM2 receptor (CALCRL:RAMP3) (Homo sapiens, UniProt O60896+Q16602)) of CC(C)NCCC[C@@H]1NC(=O)[C@@H](NC(=O)[C@H](Cc2ccccc2C(N)=O)NC(=O)[C@H](NC(=O)c2ncco2)C(C)C)CSSC[C@@H](C(=O)N[C@@H](Cc2cccnc2)C(N)=O)NC(=O)[C@H](Cc2ccccc2)NC(=O)[C@@H]2CCCN2C(=O)CNC(=O)[C@H](C(C)C)NC(=O)[C@H](CC(=O)O)NC1=O [Compound 30] (Oxazole2carbonyl-[dV][Phe(2-CONH2)]C[Orn(iPr)]DVGPFC[3Pal]-NH2; disulfide 3-10)
Completion: 6628

Prompt: Write down the reported selectivity ratio CGRP/AM2 (system: hAM2 receptor (CALCRL:RAMP3) (Homo sapiens, UniProt O60896+Q16602)) of CC(C)NCCOCCOCC(=O)NCCC[C@@H]1NC(=O)[C@@H](NC(=O)[C@H](Cc2ccc(O)cc2)NC(=O)[C@H](NC(=O)c2ccc(F)cn2)C(C)C)CSSC[C@@H](C(=O)N[C@@H](Cc2cccnc2)C(N)=O)NC(=O)[C@H](Cc2ccccc2)NC(=O)[C@@H]2CCCN2C(=O)CNC(=O)[C@H](C(C)C)NC(=O)[C@H](CC(=O)O)NC1=O [Compound 13] ({Picolinoyl(5-F)}-[dV]YC[Orn](X8)DVGPFC[3Pal]-NH2; disulfide 3-10)
Completion: 249

Prompt: Write down the reported selectivity ratio CGRP/AM2 (system: hAM2 receptor (CALCRL:RAMP3) (Homo sapiens, UniProt O60896+Q16602)) of CC(C)NCCC[C@@H]1NC(=O)[C@@H](NC(=O)[C@H](Cc2ccccc2C(N)=O)NC(=O)[C@H](NC(=O)c2ccc(F)cn2)C(C)C)CSSC[C@@H](C(=O)N[C@@H](Cc2cccnc2)C(N)=O)NC(=O)[C@H](Cc2ccccc2C(N)=O)NC(=O)[C@@H]2C=CCN2C(=O)CNC(=O)[C@H](C(C)C)NC(=O)[C@H](CC(=O)O)NC1=O [Compound 66] ({Picolinoyl(5-F)}-[dV][Phe(2-CONH2)]C[Orn(iPr)]DVG[ΔPro][Phe(2-CONH2)]C[3Pal]-NH2; disulfide 3-10)
Completion: 1027

Prompt: Write down the reported selectivity ratio CGRP/AM2 (system: hAM2 receptor (CALCRL:RAMP3) (Homo sapiens, UniProt O60896+Q16602)) of CC(C)[C@@H]1NC(=O)[C@H](CC(=O)O)NC(=O)[C@H](CCCNC(=N)N)NC(=O)[C@@H](NC(=O)[C@H](Cc2ccc(O)cc2)NC(=O)[C@H](NC(=O)c2cc(F)ccn2)C(C)C)CSSC[C@@H](C(=O)N[C@@H](Cc2cccnc2)C(N)=O)NC(=O)[C@H](Cc2ccccc2)NC(=O)[C@@H]2CCCN2C(=O)CNC1=O [Compound 18] (X7-[dV]YCRDVGPFC[3Pal]-NH2; disulfide 3-10)
Completion: 52

Prompt: Write down the reported selectivity ratio CGRP/AM2 (system: hAM2 receptor (CALCRL:RAMP3) (Homo sapiens, UniProt O60896+Q16602)) of CC(C)NCCC[C@@H]1NC(=O)[C@@H](NC(=O)[C@H](Cc2ccccc2C(N)=O)NC(=O)[C@H](NC(=O)c2ncco2)C(C)C)CSSC[C@@H](C(=O)N[C@@H](Cc2cccnc2)C(N)=O)NC(=O)[C@H](Cc2ccc(NC(N)=O)cc2)NC(=O)[C@@H]2C=CCN2C(=O)CNC(=O)[C@H](C(C)C)NC(=O)[C@H](CC(=O)O)NC1=O [Compound 60] (Oxazole2carbonyl-[dV][Phe(2-CONH2)]C[Orn(iPr)]DVG[ΔPro][Phe(4-NHCONH2)]C[3Pal]-NH2; disulfide 3-10)
Completion: 3759

Prompt: Write down the reported selectivity ratio CGRP/AM2 (system: hAM2 receptor (CALCRL:RAMP3) (Homo sapiens, UniProt O60896+Q16602)) of CC(C)NCCC[C@@H]1NC(=O)[C@@H](NC(=O)[C@H](Cc2ccccc2C(N)=O)NC(=O)[C@H](NC(=O)c2ncco2)C(C)C)CSSC[C@@H](C(=O)N[C@@H](Cc2cccnc2)C(N)=O)NC(=O)[C@H](Cc2cccc(CN)c2)NC(=O)[C@@H]2C=CCN2C(=O)CNC(=O)[C@H](C(C)C)NC(=O)[C@H](CC(=O)O)NC1=O [Compound 43] (Oxazole2carbonyl-[dV][Phe(2-CONH2)]C[Orn(iPr)]DVG[ΔPro][Phe(3-CH2NH2)]C[3Pal]-NH2; disulfide 3-10)
Completion: 4693

Prompt: Write down the reported selectivity ratio CGRP/AM2 (system: hAM2 receptor (CALCRL:RAMP3) (Homo sapiens, UniProt O60896+Q16602)) of CC(C)NCCC[C@@H]1NC(=O)[C@@H](NC(=O)[C@H](Cc2ccccc2C(N)=O)NC(=O)[C@H](NC(=O)c2ccc(F)cn2)C(C)C)CSSC[C@@H](C(=O)N[C@@H](Cc2cccnc2)C(N)=O)NC(=O)[C@H](Cc2cccnc2)NC(=O)[C@@H]2CCCN2C(=O)CNC(=O)[C@H](C(C)C)NC(=O)[C@H](CC(=O)O)NC1=O [Compound 39] ({Picolinoyl(5-F)}-[dV][Phe(2-CONH2)]C[Orn(iPr)]DVGP[3Pal]C[3Pal]-NH2; disulfide 3-10)
Completion: 2125
